Where these numbers come from: paper doi:10.1101/2025.07.09.663793

# target.entity: CloA (SeCloA)
# Construct: wild-type CloA
# measurement.notes: activation of purified CloA dGTPase, phosphate release and LC-MS
endpoint: EC50

Problem: Provide EC50, recorded with CloA (SeCloA), of "Cc1cn([C@H]2C[C@H](O)[C@@H](COP(=O)(O)OP(=O)(O)OP(=O)(O)O)O2)c(=O)[nH]c1=O"
Result: ~15 µM

====

# target.entity: CloA (SeCloA)
# Construct: wild-type CloA
# measurement.notes: inhibition of purified CloA dGTPase, phosphate release (malachite green)
# Type: biochemical, Salmonella enterica
endpoint: IC50

Problem: Specify reported IC50 for the compound shown: "Cc1cn([C@H]2C[C@H](OP(=O)(O)OC[C@H]3O[C@@H](n4cc(C)c(=O)[nH]c4=O)C[C@@H]3O)[C@@H](COP(=O)(O)OP(=O)(O)O)O2)c(=O)[nH]c1=O"
Result: ~20.9 µM
